- assay-info: Cytotoxicity against HEK293 cells assessed as inhibition of cell proliferation at 100 uM relative to control
- Type: cell-based
- assay-context: human, HEK293 cells
observation-type: inhibition at 100 µM (%)
Just the number in %, nothing appended.

Prompt: What value of inhibition at 100 µM has been reported for the following compound? CC1(C)C(=O)C2=C(O[C@]3(CC[C@H]4C[C@@H]3C4(C)C)C[C@@H]2c2ccccc2)C(C)(C)C1=O
Completion: 64
